assay.system: FGFR3-BAIAP2L1 Ba/F3 cells (Homo sapiens, UniProt P22607)
Sequence (P22607 23-806 limits assumed, change not shown): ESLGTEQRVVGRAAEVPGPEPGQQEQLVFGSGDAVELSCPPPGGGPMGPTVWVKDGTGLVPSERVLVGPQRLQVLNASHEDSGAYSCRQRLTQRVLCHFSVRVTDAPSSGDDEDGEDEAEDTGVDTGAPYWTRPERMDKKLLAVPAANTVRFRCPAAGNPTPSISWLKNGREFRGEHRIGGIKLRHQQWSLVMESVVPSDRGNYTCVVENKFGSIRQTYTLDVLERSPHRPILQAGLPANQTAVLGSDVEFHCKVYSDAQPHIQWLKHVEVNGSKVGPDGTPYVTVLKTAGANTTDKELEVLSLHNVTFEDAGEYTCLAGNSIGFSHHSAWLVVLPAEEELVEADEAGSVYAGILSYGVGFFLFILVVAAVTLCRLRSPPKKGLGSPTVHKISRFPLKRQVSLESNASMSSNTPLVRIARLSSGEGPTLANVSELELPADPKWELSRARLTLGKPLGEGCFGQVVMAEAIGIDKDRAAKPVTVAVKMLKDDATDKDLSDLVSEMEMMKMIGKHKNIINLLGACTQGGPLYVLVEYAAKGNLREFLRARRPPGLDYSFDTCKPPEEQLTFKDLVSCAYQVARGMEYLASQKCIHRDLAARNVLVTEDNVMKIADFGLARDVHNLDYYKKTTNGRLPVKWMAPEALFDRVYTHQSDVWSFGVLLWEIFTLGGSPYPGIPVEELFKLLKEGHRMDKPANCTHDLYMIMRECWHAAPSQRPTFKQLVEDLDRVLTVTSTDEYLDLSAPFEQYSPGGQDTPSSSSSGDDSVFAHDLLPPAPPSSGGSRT
test.details: Ba/F3 cell viability assay (CellTiter-Glo 2.0), FGFR3-BAIAP2L1 Ba/F3
Format: cell-based
conditions: read-out: Ba/F3 Cells FGFR3 (IC50 nM); FGFR3-BAIAP2L1 Ba/F3 cells, 48 hours, Cell Titer Glo 2.0
quantity.measured: IC50

molecule=Cc1cncc(C)c1[C@@H](C)Oc1ccc2[nH]nc(-c3ccc(N4CC5(C4)CN(S(C)(=O)=O)C5)nc3)c2c1 measured="20 to 100 nM"
molecule=C[C@@H](Oc1ccc2[nH]nc(-c3ccc(N4CC5(C4)CN(S(C)(=O)=O)C5)nc3)c2c1)c1c(Cl)cncc1Cl measured="1 to 20 nM"
molecule=C[C@@H](Oc1ccc2[nH]nc(-c3cnc(N4CCCN(S(C)(=O)=O)CC4)nc3)c2c1)c1c(Cl)cncc1Cl measured="20 to 100 nM"
molecule=C[C@@H](Oc1ccc2[nH]nc(-c3cnc(N4CCC5(CC4)CC(=O)NC5=O)nc3)c2c1)c1c(Cl)cncc1Cl measured="1 to 20 nM"
molecule=C[C@@H](Oc1ccc2[nH]nc(-c3ccc(C4CCN(C(N)=O)CC4)nc3)c2c1)c1c(Cl)cncc1Cl measured="1 to 20 nM"
molecule=C[C@@H](Oc1ccc2[nH]nc(-c3ccc(N4CC5(CCN5C)C4)nc3)c2c1)c1c(Cl)cncc1Cl measured="1 to 20 nM"
molecule=C[C@@H](Oc1ccc2[nH]nc(-c3ccc(N4CCC5(CC4)CN(C)CC(=O)N5)nc3)c2c1)c1c(Cl)cncc1Cl measured="1 to 20 nM"
molecule="C[C@@H](Oc1ccc2[nH]nc(-c3ccc(N4CC5(CCN(S(C)(=O)=O)C5)C4)nc3)c2c1)c1c(Cl)cncc1Cl [Example 163]" measured="1 to 20 nM"
molecule=C[C@@H](Oc1ccc2[nH]nc(-c3ccc(N4CCC5(CCNC5=O)CC4)nc3)c2c1)c1c(Cl)cncc1Cl measured="1 to 20 nM"
molecule=C[C@@H](Oc1ccc2[nH]nc(-c3cnn(C4CCN(CCO)CC4)c3)c2c1)c1c(Cl)cncc1Cl measured="1 to 20 nM"
molecule=C[C@@H](Oc1ccc2[nH]nc(-c3cnc(N4CC5(CCCS(=O)(=O)C5)C4)nc3)c2c1)c1c(Cl)cncc1Cl measured="20 to 100 nM"
molecule=C[C@@H](Oc1ccc2[nH]nc(-c3cnc(N4CCC5(CC4)CNC(=O)C5)nc3)c2c1)c1c(Cl)cncc1Cl measured="1 to 20 nM"
molecule=C[C@@H](Oc1ccc2[nH]nc(-c3cnc(N4CCC5(CCC(=O)N5C)CC4)c(F)c3)c2c1)c1c(Cl)cncc1Cl measured="1 to 20 nM"
molecule=C[C@@H](Oc1ccc2[nH]nc(-c3ccc(N4CCN(S(C)(=O)=O)C5(CC5)C4)nc3)c2c1)c1c(Cl)cncc1Cl measured="1 to 20 nM"
